Assay: Pharmacokinetic analysis following iv administration to dogs
Type: in vivo
Conditions: dog, in vivo, VSS / volume of distribution
readout.label: Vd
State the result as a value with its unit after it.

Request the reported Vd associated with O=C(O)CNC(=O)OCc1ccccc1 [compound VIII, N-benzyloxycarbonylglycine] 0.2 L/kg

----------
Assay: rotored ataxia test (neurotoxicity), ip to mice
Assay type: in vivo
Details: mouse, in vivo, ip
readout.label: TD50 (mg/kg)
The answer is to be given in mg/kg; state only the numeric part.

Request the reported TD50 associated with NC(=O)CNC(=O)OCc1ccccc1 [IX, N-benzyloxycarbonylglycinamide] 230

----------
Assay: Pharmacokinetic analysis following iv administration to dogs
Format: in vivo
Conditions: dog, in vivo, VSS
The following compounds are listed with their measured Vd values.

NC(=O)CNC(=O)OCc1ccccc1 [IX, N-benzyloxycarbonylglycinamide]    33 L

Request the reported Vd associated with CC(=O)NCC(=O)NCc1ccccc1 [compound VII, N-Acetyl,N'-benzylglycinamide] 21 L

These entries and their values trace back to patent US6028102A.
